# Tested on: PBMCs from healthy HHV-6 seropositive donors
# Assay type: cell-based, human
# Protocol conditions: number of positive donors by empirical rule (ER); out of n = 3-5 donors tested
Measured endpoint: Number positive, ER (individual peptides)
Simply state the number, no unit and no words.

{"columns": ["Sequence", "Assayed target", "Assay result"],
 "data": [
  ["SPNSLLSIMTLAAMHSK [Peptide 6BZ_1065s]", "PBMCs from healthy HHV-6 seropositive donors", 1],
  ["SKIFYFSVLPALSNNKA [Peptide 6BZ_1031s]", "PBMCs from healthy HHV-6 seropositive donors", 2],
  ["ATSIIITAIPLNSTSVS [Peptide 6BZ_1207s]", "PBMCs from healthy HHV-6 seropositive donors", 2]
]}

Q) Tell me its Number positive, ER (individual peptides) given LNELIFPVQVRSAKITR [Peptide 6BZ_1178s] as the entry.
A) 2

Q) Tell me its Number positive, ER (individual peptides) given MLFRLWVFVLLTPSYSW [Peptide 6BZ_1098s] as the entry.
A) 2

----------
# Number positive, ER (individual peptides) values compiled below
# Tested on: PBMCs from healthy HHV-6 seropositive donors
# Type: cell-based, human
# Protocol conditions: number of positive donors by empirical rule (ER); out of n = 3-5 donors tested
Simply state the number, no unit and no words.

Example entries begin here.
{"columns": ["Sequence", "Assay result"],
 "data": [
  ["MQRHMQLLIGNLSNPVE [Peptide 6BZ_1064s]", 2],
  ["KIFYFSVLPALSNNKAS [Peptide 6BZ_1078s]", 1],
  ["RPPDMARVAAIQSLSPS [Peptide 6BZ_1199s]", 1],
  ["AFMILKQVISQSISYWF [Peptide 6BZ_1043s]", 1],
  ["TGHRFSQLSQLKITREN [Peptide 6BZ_1080s]", 1]
]}

Q) Tell me its Number positive, ER (individual peptides) given PEKPMHLMRSISIDTQL [Peptide 6BZ_094s] as the entry.
A) 1

Q) Tell me its Number positive, ER (individual peptides) given KAPNLENIYSPSASPVR [Peptide 6BZ_1070s] as the entry.
A) 1

Q) Tell me its Number positive, ER (individual peptides) given NKHAFMILKQVISQSIS [Peptide 6BZ_100s] as the entry.
A) 1

Q) Tell me its Number positive, ER (individual peptides) given FRLWVFVLLTPSYSWRP [Peptide 6BZ_1218s] as the entry.
A) 2

Q) Tell me its Number positive, ER (individual peptides) given YNISFEALLGIYSNKIE [Peptide 6BZ_1059s] as the entry.
A) 1

Q) Tell me its Number positive, ER (individual peptides) given DLTYIQKNRATEVLSTP [Peptide 6BZ_1060s] as the entry.
A) 2

Q) Tell me its Number positive, ER (individual peptides) given VSSQYKLLSVSKSFIII [Peptide 6BZ_111s] as the entry.
A) 1

Values were extracted from paper PMC4658110.
